# assay method text: Inhibition of beta-lactamase (unknown origin)
parameter measured: IC50
Remember to put the unit after the number in your answer.

Please look at this molecule and report its IC50: O=C(O)C[C@@H]1CC[C@H](NC(=O)Cc2cccs2)B(O)O1 9 nM

---

# assay method text: Inhibition of Enterococcus faecalis DNA gyrase subunit B
pIC50: −log10 of the molar value.
parameter measured: pIC50

Please look at this compound and report its pIC50: CNc1cc(F)cc2c1[nH]c1nc(Oc3cnc(C)nc3)nc(N3CC4[C@H](N)C[C@]4(C)C3)c12 (stereo partly specified) > 9.52

---

# measurement target: Voltage-gated inwardly rectifying potassium channel KCNH2 (Homo sapiens, UniProt Q12809)
# Sequence (Q12809 whole entry): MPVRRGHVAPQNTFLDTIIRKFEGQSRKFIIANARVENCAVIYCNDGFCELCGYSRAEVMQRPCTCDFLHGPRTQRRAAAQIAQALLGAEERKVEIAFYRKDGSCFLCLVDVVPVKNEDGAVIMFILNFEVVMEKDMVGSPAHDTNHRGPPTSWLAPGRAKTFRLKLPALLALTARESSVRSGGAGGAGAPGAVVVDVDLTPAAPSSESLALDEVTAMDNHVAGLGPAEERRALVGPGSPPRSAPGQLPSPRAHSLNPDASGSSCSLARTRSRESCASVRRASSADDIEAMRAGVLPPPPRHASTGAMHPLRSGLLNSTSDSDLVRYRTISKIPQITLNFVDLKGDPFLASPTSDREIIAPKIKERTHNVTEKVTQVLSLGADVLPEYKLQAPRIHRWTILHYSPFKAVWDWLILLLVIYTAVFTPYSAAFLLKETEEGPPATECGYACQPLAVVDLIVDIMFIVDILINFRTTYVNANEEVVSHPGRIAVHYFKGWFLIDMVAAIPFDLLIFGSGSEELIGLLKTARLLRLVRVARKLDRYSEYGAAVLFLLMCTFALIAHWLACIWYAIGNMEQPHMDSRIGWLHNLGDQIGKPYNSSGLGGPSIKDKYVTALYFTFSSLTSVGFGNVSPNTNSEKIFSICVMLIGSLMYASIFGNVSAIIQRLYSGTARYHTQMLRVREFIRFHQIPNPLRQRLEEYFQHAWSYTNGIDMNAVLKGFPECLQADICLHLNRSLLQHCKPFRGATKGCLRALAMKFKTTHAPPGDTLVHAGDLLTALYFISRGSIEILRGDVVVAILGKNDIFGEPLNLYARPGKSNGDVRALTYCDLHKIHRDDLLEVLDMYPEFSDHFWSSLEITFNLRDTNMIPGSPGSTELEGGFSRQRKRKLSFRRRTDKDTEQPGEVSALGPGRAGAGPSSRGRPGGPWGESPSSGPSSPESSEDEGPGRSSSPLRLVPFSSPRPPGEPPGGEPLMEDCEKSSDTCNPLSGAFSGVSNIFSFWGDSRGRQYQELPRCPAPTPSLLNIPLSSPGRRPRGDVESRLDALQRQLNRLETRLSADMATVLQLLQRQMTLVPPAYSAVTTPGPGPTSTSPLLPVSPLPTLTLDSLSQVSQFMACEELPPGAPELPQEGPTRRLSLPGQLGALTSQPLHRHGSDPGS
parameter measured: pIC50
Interpret pIC50 as the negative base-10 log of the concentration measured in mol/L.

GET pIC50 where system = Voltage-gated inwardly rectifying potassium channel KCNH2 (Homo sapiens, UniProt Q12809) and item = O=c1ccc2ncc(=O)n3c2n1C[C@H]3CN1CCC(NCc2cc3c(cn2)OCCC3)CC1 2.85
